As shown below, each of these compounds has a reported IC50 value.
# Tgt: Glycogen phosphorylase, liver form (Mus musculus)
# Sequence (Q9ET01 whole entry): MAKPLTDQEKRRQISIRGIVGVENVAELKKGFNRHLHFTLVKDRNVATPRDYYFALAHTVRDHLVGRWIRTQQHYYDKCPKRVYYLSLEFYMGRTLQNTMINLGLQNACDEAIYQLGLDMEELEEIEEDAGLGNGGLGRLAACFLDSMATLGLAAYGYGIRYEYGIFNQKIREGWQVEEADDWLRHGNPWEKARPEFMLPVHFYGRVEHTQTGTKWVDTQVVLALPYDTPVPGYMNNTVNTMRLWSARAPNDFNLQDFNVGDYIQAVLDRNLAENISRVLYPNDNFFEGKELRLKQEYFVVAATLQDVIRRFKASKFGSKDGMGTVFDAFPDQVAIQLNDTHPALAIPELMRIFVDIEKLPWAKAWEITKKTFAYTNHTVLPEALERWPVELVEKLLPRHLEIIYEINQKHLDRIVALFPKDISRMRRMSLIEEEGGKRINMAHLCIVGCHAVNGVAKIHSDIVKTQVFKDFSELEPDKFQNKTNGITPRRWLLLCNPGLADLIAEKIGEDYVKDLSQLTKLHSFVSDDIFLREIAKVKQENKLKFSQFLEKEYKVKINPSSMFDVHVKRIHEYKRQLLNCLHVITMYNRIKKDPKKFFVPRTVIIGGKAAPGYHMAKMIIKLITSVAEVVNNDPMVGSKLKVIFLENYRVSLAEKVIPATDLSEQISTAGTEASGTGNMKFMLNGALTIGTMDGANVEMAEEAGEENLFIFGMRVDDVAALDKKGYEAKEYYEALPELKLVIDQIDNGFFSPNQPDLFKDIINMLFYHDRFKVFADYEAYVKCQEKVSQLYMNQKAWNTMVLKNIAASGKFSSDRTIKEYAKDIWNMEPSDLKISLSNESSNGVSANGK
Measured Attribute: IC50 (µM)

1. COCCNC(=O)c1cc2cc(Cl)ccc2[nH]1    12.5
2. CN(C)C(=O)[C@H](O)[C@H](Cc1ccccc1)NC(=O)c1cc2cc(Cl)ccc2[nH]1    0.13
